Just for reference, PubChem BioAssay AID624417 is where these values come from.

target: Glucagon-like peptide 1 receptor (Homo sapiens) (UniProt P43220); test: qHTS of GLP-1 Receptor Inverse Agonists (Inhibition Mode); settings: HEK293 GLP-1R CRE-luciferase, luminescence, 24 h, GLP-1R form is constitutively active; series mostly up to 38.3 µM; also: nearly all actives have a fitted effect of over 55% in size; also: potency is read from the fitted curve at half-maximal effect
Sequence (P43220 whole entry, looked up): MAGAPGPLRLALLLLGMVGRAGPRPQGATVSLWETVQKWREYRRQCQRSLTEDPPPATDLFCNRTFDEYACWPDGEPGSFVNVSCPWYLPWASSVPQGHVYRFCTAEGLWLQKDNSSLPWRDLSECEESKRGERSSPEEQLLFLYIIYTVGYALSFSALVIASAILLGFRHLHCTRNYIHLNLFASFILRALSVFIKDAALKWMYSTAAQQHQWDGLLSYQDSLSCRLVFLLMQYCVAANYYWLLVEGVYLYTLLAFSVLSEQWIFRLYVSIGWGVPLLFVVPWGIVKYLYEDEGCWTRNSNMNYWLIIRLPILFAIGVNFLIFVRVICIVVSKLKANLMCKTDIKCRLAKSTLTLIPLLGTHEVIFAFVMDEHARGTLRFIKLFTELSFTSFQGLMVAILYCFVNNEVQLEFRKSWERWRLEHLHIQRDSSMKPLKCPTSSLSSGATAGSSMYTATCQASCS
Hit rate of the full screen: of about 410,000 compounds, about 6,400 (1.6%) were called active. Inconclusive results (about 20%) are left out. The sample as a whole holds a higher share of actives than the screen did.
Quantity measured: Potency

Reference set (5 entries):
> print(dat)
                                   compound  quantity.measured  experimental.result
1  O=C(C1=C[C@H](C2CC2)C[C@H](OCc2ccc(CO)cc2)O1)N1CCN(Cc2ccccc2)CC1            Potency             inactive
2  COc1ccc(-c2[nH][nH]c(=O)c2NC(=O)c2ccc([N+](=O)[O-])cc2)cc1            Potency             inactive
3  COc1ccc(CN(CC(=O)NC2CCCC2)C(=O)CCC(=O)Nc2cc(C)on2)cc1            Potency             inactive
4  CN(Cc1ccccc1F)C(=O)C(Cc1ccccc1)NC(=O)c1ccccc1 (stereo unspecified)            Potency     11.2 µM (active)
5  O=C1NC[C@H](Cc2ccc(O)cc2)N(C[C@H]2CCCN2C[C@H](Cc2ccccc2)N2C[C@H](Cc3ccccc3)N(CCc3ccccc3)C(=O)C2=O)C1=O            Potency             inactive

Req: What does the record list as Potency for O=C(NCc1ccccc1)C1=C[C@@H](c2ccccc2)C[C@@H](OCCCCO)O1 ?
Resp: inactive

Req: What does the record list as Potency for CCOc1ccc(CCN2C(=O)C(=O)N([C@@H](Cc3ccc(O)cc3)CN3CCC[C@H]3CN3C(=O)C(=O)NC[C@@H]3CC(C)C)C[C@@H]2Cc2ccccc2)cc1 ?
Resp: inactive

* * *

molecular target: Glucagon-like peptide 1 receptor (Homo sapiens); assay: qHTS of GLP-1 Receptor Inverse Agonists (Inhibition Mode); conditions: HEK293 GLP-1R CRE-luciferase, luminescence, 24 h, GLP-1R form is constitutively active; series mostly up to 38.3 µM; also: nearly all actives have a fitted effect of over 55% in size
Hit rate of the full screen: of about 410,000 compounds, about 6,400 (1.6%) were called active. Inconclusive results (about 20%) are left out. The sample as a whole holds a higher share of actives than the screen did.
Quantity measured: outcome

> print(dat)
                                   molecule  experimental.result
1    Cc1c(C(=O)NCC2CC2)sc(=O)n1Cc1cccc(F)c1             inactive
2  O=C1NC[C@H](CCCCN2CCN(CCc3ccccc3)C(=O)C2=O)N(CC2CCCCC2)C1=O             inactive
3  COc1ccc(NC(=O)CN2C(=O)C(c3ccccc3)=NC23CCCCCC3)cc1OC             inactive
4  Cc1sc2ncnc(N3CCC(C(=O)Nc4nc5ccc(Cl)cc5s4)CC3)c2c1C             inactive
5  Cn1ncc([N+](=O)[O-])c1C(=O)Nc1cc(Cl)ccc1Cl             inactive

We now examine a further molecule.
Req: What does the record list as outcome for COCOCCn1cc(CN2CCS(=O)(=O)N(Cc3ccc(-c4cccc(N(C)C)c4)cc3)C(CC(C)C)C2=O)nn1 (stereo unspecified) ?
Resp: inactive

* * *

target: Glucagon-like peptide 1 receptor (Homo sapiens); experiment: qHTS of GLP-1 Receptor Inverse Agonists (Inhibition Mode); settings: HEK293 GLP-1R CRE-luciferase, luminescence, 24 h, GLP-1R form is constitutively active; series mostly up to 38.3 µM; also: nearly all actives have a fitted effect of over 55% in size
Hit rate of the full screen: of about 410,000 compounds, about 6,400 (1.6%) were called active. Roughly 20% stayed inconclusive and do not appear here. Calls come from the whole dose curve; as a rule, active = well fitted inhibition curve with a large enough effect; inconclusive = small, poorly fitted or top-dose-only effect; inactive = no such curve, though single readings can be large or run the other way. Shown is part of a subset that was picked to be rich in actives.
Returns: one label drawn from 1 (active), 0 (inactive)

Example entries begin here.
> print(dat)
                                   molecule                            assayed.system  discrete.label
1  CC(C)CN1C(=O)CN(S(C)(=O)=O)CC1(C)C(=O)NCc1ccccc1 (stereo not drawn)  Glucagon-like peptide 1 receptor (Homo sapiens)               0
2       N#Cc1nc(N)nc(N(c2ccccc2)c2ccccc2)n1  Glucagon-like peptide 1 receptor (Homo sapiens)               1
3  O=C(O)/C=C/C(=O)NNc1ccc([N+](=O)[O-])cc1  Glucagon-like peptide 1 receptor (Homo sapiens)               1
4  Cc1cccc(C)c1-n1nnnc1C(CCc1ccccc1)N1CCN(C/C=C/c2ccccc2)CC1 (stereo not drawn)  Glucagon-like peptide 1 receptor (Homo sapiens)               0
5  O=C(NCCC1CCCCN1S(=O)(=O)c1ccc(F)cc1)C(=O)NC1CC1 (stereo not drawn)  Glucagon-like peptide 1 receptor (Homo sapiens)               0
6  CC(=O)Nc1ccc(C=Cc2ccc([N+](=O)[O-])cc2)cc1  Glucagon-like peptide 1 receptor (Homo sapiens)               0
7  Cc1cccc(S(=O)(=O)N(C)C[C@H]2OCc3cnnn3CCCC(=O)N([C@@H](C)CO)C[C@H]2C)c1  Glucagon-like peptide 1 receptor (Homo sapiens)               0

API: the following record is the query input.
Req: Fill in: this test's call for O=C(NCc1ccccn1)[C@@H]1CCCN1C(=O)[C@@H]1CCCN1C(=O)c1ccccc1 is ___
Resp: 0

* * *

molecular target: Glucagon-like peptide 1 receptor (Homo sapiens) (UniProt P43220); assay: qHTS of GLP-1 Receptor Inverse Agonists (Inhibition Mode); settings: HEK293 GLP-1R CRE-luciferase, luminescence, 24 h, GLP-1R form is constitutively active; series mostly up to 38.3 µM; also: nearly all actives have a fitted effect of over 55% in size; also: potency is read from the fitted curve at half-maximal effect
The whole screen tested about 410,000 compounds, of which about 6,400 (1.6%) were called active. Not shown: some 20% with an inconclusive outcome. The list comes from a sample in which actives are over-represented; it also holds close analogues and randomly drawn compounds.
Quantity measured: Potency

Reference set (5 entries):
> print(dat)
                                   compound  experimental.result
1  CCC1=Nc2cc(C(=O)NCCCN3CCOCC3)ccc2Sc2ccc(Br)cc21     11.2 µM (active)
2        CCOc1cccc(-n2nnnc2-c2ccc(OC)cc2)c1     2.51 µM (active)
3  CCCOc1ccc(NC(=O)CC2C(=O)N(c3ccccc3)C(=O)N2Cc2ccco2)cc1 (stereo not given)             inactive
4  CCOC(=O)C1CCc2nc3ccccc3c(=O)n21 (stereo not given)             inactive
5  Cc1cccc([C@@H]2[C@@H]3C(=O)N(Cc4ccccc4)C(=O)[C@@H]3[C@]3(Cc4ccc(Cl)cc4)C(=O)N(c4cccc(Cl)c4)C(=O)N23)c1             inactive

Req: What does the record list as Potency for O=C1[C@H]2[C@@H](c3ccc(F)cc3)N3C(=O)N(c4ccc(C(F)(F)F)cc4)C(=O)[C@@]3(Cc3ccccc3)[C@H]2C(=O)N1C1CCCCC1 ?
Resp: 2.24 µM (active)

Req: What does the record list as Potency for O=C(C[C@H]1C[C@H]2c3cc(NS(=O)(=O)c4ccc(F)cc4)ccc3O[C@H]2[C@H](CO)O1)NCc1cc(F)ccc1F ?
Resp: inactive

Req: What does the record list as Potency for CCNC(=O)C1(C)CCN(C(=O)c2ccccc2)C1 (stereo not given) ?
Resp: inactive

Req: What does the record list as Potency for CCn1c(SCC(=O)N2CCCC2=O)nc2ccccc21 ?
Resp: inactive

Req: What does the record list as Potency for CCOC(=O)N1CCN(C(=O)c2ccc(S(=O)(=O)Nc3cccc(C(F)(F)F)c3)cc2)CC1 ?
Resp: inactive

Req: What does the record list as Potency for CCC1(CC)Cc2ccccc2-c2nc3ccccc3c(=O)n21 ?
Resp: 8.91 µM (active)

* * *

biological target: Glucagon-like peptide 1 receptor (Homo sapiens) (UniProt P43220); experiment: qHTS of GLP-1 Receptor Inverse Agonists (Inhibition Mode); settings: HEK293 GLP-1R CRE-luciferase, luminescence, 24 h, GLP-1R form is constitutively active; series mostly up to 38.3 µM; also: nearly all actives have a fitted effect of over 55% in size
Among all 410,000 compounds or so, about 6,400 (1.6%) were called active. Another 20% or so got no clear call; they are omitted. The call rests on the fitted dose curve; in most records, active means well fitted inhibition curve with a large enough effect; inconclusive means small, poorly fitted or top-dose-only effect; inactive means no such curve, though single readings can be large or run the other way. For the sample, actives were picked, then their nearest neighbours and some compounds at random.
Returns: one label drawn from Yes = active, No = inactive

Example entries begin here.
> print(dat)
                                   compound  discrete.label
1  COc1ccc(-c2sc3ccccc3c2-c2ccc(OCCN3CCOCC3)cc2)cc1              No
2  O=C(NCCN1CCOCC1)C1CCN(S(=O)(=O)c2ccccc2)CC1              No
3  CCCCn1nnnc1C(c1cccc(OC)c1OC)N1CCN(C/C=C/c2ccccc2)CC1 (configuration not stated)              No
4   COc1ccccc1N1CCN(Cc2ccc(OC)c3ccccc23)CC1              No
5  Cc1ccc(S(=O)(=O)c2c(COC(=O)c3cccc(Cl)c3)c(-c3ccccc3)nn2C)cc1              No
6  COC(=O)Cc1ccc(OC2(C)CCN(Cc3ccc4c(c3)OCCO4)C2)cc1 (configuration not stated)              No

Req: Fill in: this test's call for COC(=O)NC1(C(F)(F)F)NC(=O)N(C2CCCCC2)C1=O (configuration not stated) is ___
Resp: No

Req: Fill in: this test's call for Cc1ccc(CN2CCc3nc(N4CCN(C)CC4)ncc3C2)cc1 is ___
Resp: Yes

Req: Fill in: this test's call for CC1(C(=O)NCc2ccccc2)CSCC(=O)N1CCCn1ccnc1 (configuration not stated) is ___
Resp: No

Req: Fill in: this test's call for Cn1nc(-c2ccccc2)c(CO)c1Sc1ccccc1 is ___
Resp: No

Req: Fill in: this test's call for CCCNC(=O)C1(C)CCN(C(=O)c2ccccc2OC(F)(F)F)C1 (configuration not stated) is ___
Resp: No

Req: Fill in: this test's call for O=S1(=O)CCN(Cc2ccccc2)CC1 is ___
Resp: No
